- measured-on: Luciferin 4-monooxygenase (Photinus pyralis) (UniProt P08659)
- Sequence (P08659 whole entry, looked up): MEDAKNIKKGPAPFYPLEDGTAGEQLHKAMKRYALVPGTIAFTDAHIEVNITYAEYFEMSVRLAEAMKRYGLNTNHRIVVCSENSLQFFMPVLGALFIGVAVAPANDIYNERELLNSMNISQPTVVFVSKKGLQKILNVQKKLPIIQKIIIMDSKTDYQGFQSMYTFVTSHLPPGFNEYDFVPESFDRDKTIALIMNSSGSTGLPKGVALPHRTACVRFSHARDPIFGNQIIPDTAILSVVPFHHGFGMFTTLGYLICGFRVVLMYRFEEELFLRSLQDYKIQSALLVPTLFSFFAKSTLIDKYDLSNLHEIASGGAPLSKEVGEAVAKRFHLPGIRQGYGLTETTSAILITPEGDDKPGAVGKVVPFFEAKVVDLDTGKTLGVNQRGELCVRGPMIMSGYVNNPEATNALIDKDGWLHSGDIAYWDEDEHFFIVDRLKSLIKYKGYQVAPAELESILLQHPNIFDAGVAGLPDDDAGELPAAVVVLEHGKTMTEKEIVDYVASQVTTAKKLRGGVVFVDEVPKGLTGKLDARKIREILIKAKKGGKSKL
- method-notes: qHTS profiling assay for firefly luciferase inhibitor/activator using purifed enzyme and Km concentrations of substrates (counterscreen for miR-21 project); note: nearly all actives have a fitted effect of over 55% in size
- test-parameters: purified FLuc, luminescence inhibition; series mostly up to 57.5 µM
In all, about 360,000 compounds went through this assay and about 25,000 (6.9%) were called active. Not shown: some 9% with an inconclusive outcome. Calls come from the whole dose curve; as a rule, active = well fitted inhibition curve with a large enough effect; inconclusive = small, poorly fitted or top-dose-only effect; inactive = flat fitted curve, though single readings scatter. The sample holds actives, similar compounds and a random draw of the others, so the mix is not that of the screen.
Outcome codes: active, inactive

[
  {
    "smi": "COc1ccc(-c2noc(CCCC(=O)NC3CCCC3)n2)cc1OC",
    "label": "inactive"
  },
  {
    "smi": "CCOC(=O)N1CCC(NC(=O)CCc2ccccc2)CC1",
    "label": "inactive"
  },
  {
    "smi": "Cc1cc(C)c2oc(-c3cccc(NC(=O)c4cccc(F)c4)c3C)nc2c1",
    "label": "active"
  },
  {
    "smi": "Cc1ccc(C(=O)Cc2nnc(C)s2)cc1",
    "label": "active"
  },
  {
    "smi": "O=C(O)C1CCN(C(=O)OCc2ccccc2)CC1",
    "label": "active"
  },
  {
    "smi": "O=C(NCc1ccccc1)C1CCN(C(=O)Cc2ccccc2)CC1",
    "label": "inactive"
  },
  {
    "smi": "Cc1cc(C)cc(NC(=O)CCCc2nc(-c3ccccc3Cl)no2)c1",
    "label": "inactive"
  },
  {
    "smi": "COc1ccccc1N1CC(O)=C(c2nc3ccccc3s2)C1=N",
    "label": "inactive"
  }
]

Origin of values: PubChem BioAssay AID588342
